Every entry's value here was drawn from paper PMC2920546.

experiment: Pharmacokinetics and tissue distribution in CD-1 mice; type: in vivo; settings: female, mouse, heart, IV 5 mg/kg
readout.label: Cmax (ng/mL)
Field: numeric (ng/mL). Do not append units.

What value of Cmax has been recorded for this entry: O=C1C(NCc2ccccc2)=CC2=NCCc3c[nH]c1c32
5340

###

experiment: Binding to mouse plasma proteins (micro-ultrafiltration); type: in vitro ADME; conditions: non-Swiss albino, pooled mouse plasma; mouse plasma, 5.0 μM; read-out: Bound to plasma proteins (converted)
readout.label: fraction unbound at 1 h, 5 μM
Keep it simple and answer with nothing but the number.

What value of fraction unbound at 1 h, 5 μM has been recorded for this entry: O=C1C(NCc2ccccc2)=CC2=NCCc3c[nH]c1c32 [BA-TPQ]
0.26
